experimentalTarget: CTSB protease (Homo sapiens, UniProt P07858)
Construct: purchased Sino Biological Inc. 10483-H08H-10
protocol: CTSB protease activity inhibition in vitro (z-Arg-Arg-AMC substrate)
Format: biochemical
conditionDetails: 1 mM of each compound
# maps each entry to its Inhibition rate (%) of the CTSB protease activity
reportedEndpoint: Inhibition rate (%) of the CTSB protease activity

1) O=c1cc(-c2ccc(O)cc2)oc2cc(O)cc(O)c12 [Apigenin]
70.93
2) O=c1c(O[C@@H]2O[C@H](CO)[C@@H](O)[C@H](O)[C@H]2O)c(-c2ccc(O)c(O)c2)oc2cc(O)cc(O)c12 [Isoquercitrin]
68.98
3) O=c1c(O)c(-c2ccc(O)c(O)c2)oc2cc(O)cc(O)c12 [Quercetin]
82.42

---

experimentalTarget: CTSB protease (Homo sapiens, UniProt P07858)
Construct: purchased Sino Biological Inc. 10483-H08H-10
protocol: CTSB protease activity inhibition in vitro (z-Arg-Arg-AMC substrate)
Format: biochemical
conditionDetails: read-out: IC50 in inhibiting the CTSB protease activity
pIC50: −log10 of the molar value.
reportedEndpoint: pIC50

1) O=c1c(O)c(-c2ccc(O)c(O)c2)oc2cc(O)cc(O)c12
5.73
2) O=c1cc(-c2ccccc2)oc2cc(O)c(O)c(O)c12 [Baicalein, 5,6,7-Trihydroxy-2-phenyl-chromen-4-one]
6.06
3) CC(C)C[C@H](NC(=O)[C@@H]1O[C@H]1C(=O)O)C(=O)NCCCCNC(=N)N [E64, reference compound]
7.70

---

experimentalTarget: CTSB protease (Homo sapiens, UniProt P07858)
Construct: purchased Sino Biological Inc. 10483-H08H-10
protocol: CTSB protease activity inhibition in vitro (z-Arg-Arg-AMC substrate)
Assay type: biochemical
conditionDetails: 1 mM of each compound; read-out: Inhibition rate (%) of the CTSB protease activity
# maps each entry to its inhibition at 1000 µM
reportedEndpoint: inhibition at 1000 µM

1. CC(C)C[C@H](NC(=O)[C@@H]1O[C@H]1C(=O)O)C(=O)NCCCCNC(=N)N [E64, reference compound]
92.1%
2. O=c1cc(-c2ccc(O)cc2)oc2cc(O)cc(O)c12 [Apigenin]
65 to 85%
3. CCCNC(=O)[C@H]1O[C@@H]1C(=O)N[C@H](C(=O)N1CCC[C@H]1C(=O)OC)[C@@H](C)CC [CA074Me, CA074 methyl ester, reference compound]
88.1%
4. O=c1cc(-c2ccccc2)oc2cc(O)c(O)c(O)c12 [Baicalein, 5,6,7-Trihydroxy-2-phenyl-chromen-4-one]
65 to 85%
5. O=c1c(O)c(-c2ccc(O)c(O)c2)oc2cc(O)cc(O)c12 [Quercetin]
65 to 85%
6. O=C(OC[C@H]1O[C@@H](OC(=O)c2cc(O)c(O)c(OC(=O)c3cc(O)c(O)c(O)c3)c2)[C@H](OC(=O)c2cc(O)c(O)c(OC(=O)c3cc(O)c(O)c(O)c3)c2)[C@@H](OC(=O)c2cc(O)c(O)c(OC(=O)c3cc(O)c(O)c(O)c3)c2)[C@@H]1OC(=O)c1cc(O)c(O)c(OC(=O)c2cc(O)c(O)c(O)c2)c1)c1cc(O)c(O)c(OC(=O)c2cc(O)c(O)c(O)c2)c1 [Tannic acid]
69.3%
7. CCCNC(=O)[C@H]1O[C@@H]1C(=O)N[C@H](C(=O)N1CCC[C@H]1C(=O)O)[C@@H](C)CC (relative stereo) [CA074, reference compound]
91.8%
8. O=c1c(O[C@@H]2O[C@H](CO)[C@@H](O)[C@H](O)[C@H]2O)c(-c2ccc(O)c(O)c2)oc2cc(O)cc(O)c12 [Isoquercitrin]
65 to 85%

---

experimentalTarget: UniProt P07858
protocol: CTSB protease activity inhibition in vitro (z-Arg-Arg-AMC substrate)
conditionDetails: read-out: EC50 (activation of the CTSB protease)
pEC50: −log10 of the molar value.
reportedEndpoint: pEC50

1. Nc1nc2ncc(CNc3ccc(C(=O)N[C@@H](CCC(=O)O)C(=O)O)cc3)nc2c(=O)[nH]1
5.90

---

experimentalTarget: CTSB protease (Homo sapiens)
Construct: purchased Sino Biological Inc. 10483-H08H-10
protocol: CTSB protease activity inhibition in vitro (z-Arg-Arg-AMC substrate)
Assay type: biochemical
conditionDetails: read-out: IC50 in inhibiting CTSB
# maps each entry to its IC50
reportedEndpoint: IC50

1. CC(C)C[C@H](NC(=O)[C@@H]1O[C@H]1C(=O)O)C(=O)NCCCCNC(=N)N [E64, reference compound]
≤ 20 nM
2. CCCNC(=O)[C@H]1O[C@@H]1C(=O)N[C@H](C(=O)N1CCC[C@H]1C(=O)OC)[C@@H](C)CC [CA074Me, CA074 methyl ester, reference compound]
≤ 20 nM
